# Tested on: HepG2
# procedure-text: cytotoxicity call (relative viability < 0.9)
# test-conditions: 10 µM
The campaign covered roughly 39,000 compounds. About 3,300 (8.5%) were called active. The sample as a whole holds a higher share of actives than the screen did.
Labels: active, inactive

- CCC(=O)NCc1nn(C)c2c1COCC2: inactive
- Cc1noc(C)c1S(=O)(=O)Nc1ccc2c(c1)CC(=O)N([C@@H](C)CO)C[C@H](C)[C@H](CN(C)Cc1ccncc1)O2: inactive
- C[C@@H]1CN([C@H](C)CO)S(=O)(=O)c2ccc(C#C[C@@H](C)O)cc2O[C@H]1CN(C)C(=O)c1ccccc1: inactive
- C=CCOC(=O)[C@H]1[C@@H]2C(=O)O[C@@H](c3ccccc3)[C@@H](c3ccccc3)N2[C@@H](c2ccc(OCCOC(=O)[C@@H]3C[C@@H]4C(=O)NCC(=O)N4[C@@H]3c3cccc(OCCO)c3)cc2)[C@]12C(=O)Nc1ccc(I)cc12: inactive
- COc1ccc([C@@H]2C/C=C\C[C@@H](c3cccc(Cl)c3)NC(=O)[C@@H](c3ccccc3)CC(=O)N2)c(OC)c1: inactive
- COc1ccc(CN(C)C[C@H]2OCCCC[C@H](C)Oc3ccc(NS(=O)(=O)c4ccc(C)cc4)cc3C(=O)N([C@H](C)CO)C[C@H]2C)cc1: inactive
- O=C(O)CC[C@H]1CCCCN1: inactive
- COCC(=O)N1C[C@@H](C)[C@H](OC)CN(C)C(=O)c2cc(NC(=O)c3ccc(F)cc3)ccc2OC[C@@H]1C: inactive
- COc1ccccc1S(=O)(=O)N1C[C@@H](O)COC[C@@H]2O[C@H](CC(=O)O)CC[C@H]21: inactive
- C[C@H](CO)N1C[C@H](C)[C@H](CN(C)CC2CC2)Oc2ccc(NS(=O)(=O)c3ccc(F)cc3)cc2C1=O: inactive
- C[C@H]1CCCCO[C@@H](CN(C)Cc2ccncc2)[C@@H](C)CN([C@@H](C)CO)C(=O)c2cc(NC(=O)Cc3ccccc3)ccc2O1: inactive
- C[C@H](CO)N1C[C@H](C)[C@@H](CN(C)C(=O)Nc2ccc3c(c2)OCO3)OCCCC[C@H](C)Oc2ccc(NC(=O)CCC(F)(F)F)cc2C1=O: inactive
- OC[C@@H]1CCCN1: inactive
- CCC(=O)NCCC1CCc2ccc3c(c21)CCO3 (stereo unspecified): active
- C1CCC(C(C[C@H]2CCCCN2)C2CCCCC2)CC1: active
- CC(C)NC(=O)N(C)C[C@@H]1Oc2ccc(NC(=O)CCCN(C)C)cc2C(=O)N([C@H](C)CO)C[C@@H]1C: inactive

----------
# Tested on: HepG2
# procedure-text: cytotoxicity call (relative viability < 0.9)
# test-conditions: 10 µM
In all, about 39,000 compounds went through this assay and about 3,300 (8.5%) were called active. This excerpt belongs to a sample that is enriched for actives.
Labels: 1 for active, -1 for inactive

• CC(C)CC#Cc1cnc2c(c1)C(=O)N([C@@H](C)CO)C[C@@H](C)[C@H](CN(C)S(=O)(=O)c1ccccc1)O2 = -1
• C[C@H](CO)N1C[C@H](C)[C@@H](CN(C)S(C)(=O)=O)Oc2c(cccc2N(C)C)C1=O = -1
• COc1ccccc1NC(=O)N(C)C[C@H]1Oc2ncc(C#CCN(C)C)cc2C(=O)N([C@H](C)CO)C[C@H]1C = -1
• NCc1cnc2ccccc2c1 = -1
• C[C@@H]1CN([C@@H](C)CO)C(=O)c2cc(C#CC3(O)CCCC3)cnc2O[C@H]1CN(C)C(=O)Nc1ccc2c(c1)OCO2 = -1
• COc1ccc(COC[C@]23NC(=S)N[C@H](c4ccccc4O2)[C@@H]3CO[Si](C)(C)C(C)(C)C)cc1 = -1
• COc1cccc(NC(=O)N2C[C@H](O)COC[C@@H]3O[C@@H](CC(=O)NCCCN4CCOCC4)CC[C@H]32)c1 = -1
• COc1ccc(COC[C@@]23Oc4ccccc4[C@@H](NC(=O)N2C(=O)c2ccccc2)[C@H]3CO[Si](C)(C)C(C)(C)C)cc1 = -1
• COc1ccc(COC[C@@]23Oc4ccccc4[C@@H](NC(=S)N2C)[C@@H]3CO[Si](C)(C)C(C)(C)C)cc1 = 1
• C[C@@H]1O[C@@H](Oc2c(-c3cc(O)c(O)c(O)c3)oc3cc(O)cc(O)c3c2=O)[C@H](O)[C@H](O)[C@H]1O = -1
• Cc1ccc(S(=O)(=O)Nc2ccc3c(c2)C(=O)N([C@@H](C)CO)C[C@@H](C)[C@H](CN(C)C(=O)c2ccccc2)OCCCC[C@H](C)O3)cc1 = -1
• C=CCOC(=O)[C@H]1[C@@H]2C(=O)O[C@@H](c3ccccc3)[C@@H](c3ccccc3)N2[C@@H](c2ccc(OCCOC(=O)[C@H]3C[C@H]4C(=O)N[C@@H](CCCCNC(C)=O)C(=O)N4[C@H]3c3cccc(OCCO)c3)cc2)[C@]12C(=O)Nc1ccc(I)cc12 = -1
• C[C@@H]1O[C@@H](OC[C@H]2O[C@@H](OCCc3ccccc3)[C@H](O)[C@@H](O)[C@@H]2O)[C@H](O)[C@H](O)[C@H]1O = -1
• COc1ccc(COC[C@]23N=C4SCCCN4[C@H](c4ccccc4O2)[C@H]3CO[Si](C)(C)C(C)(C)C)cc1 = 1
• COc1ccc(COC[C@]23NC(=S)N[C@H](c4ccccc4O2)[C@H]3CO[Si](C)(C)C(C)(C)C)cc1 = -1

----------
# System: HepG2
# procedure-text: cytotoxicity call (relative viability < 0.9)
# test-conditions: 10 µM
About 3,300 (8.5%) of roughly 39,000 compounds were called active. This is one part of a sample in which actives are shown more often than they occur.
Labels: t for active, f for inactive

- C[N+](C)(C)[C@@H]1[C@H]2OC[C@H](O)[C@H]2O[C@@H]1O: f
- CN1CCN(C)[C@@H](CO)C1: f
- COc1ccc([Si](C)(C)[C@@H]2[C@@H](CCO)O[C@]3(C(=O)N(Cc4ccccc4)c4ccc(N(C=O)c5ccccc5)cc43)[C@H]2C)cc1: t
- CS(=O)(=O)OCCCCOS(C)(=O)=O: f
- O=S(=O)(c1cccc(OC(F)F)c1)N1[C@@H]2CC[C@@H](C2)[C@H]1c1nc2cccc(OCc3ccccc3)c2[nH]1: f
- C[C@H]1CCCCO[C@@H](CN(C)C(=O)c2ccncc2)[C@@H](C)CN([C@@H](C)CO)C(=O)c2cc(NS(=O)(=O)c3ccc(Cl)cc3)ccc2O1: f
- C[C@@H]1CN([C@@H](C)CO)C(=O)c2cc(C#CCN(C)C)cnc2O[C@H]1CN(C)Cc1ccc(C(=O)O)cc1: f
- CN(C)CCCNC(=O)C[C@@H]1CC[C@@H]2[C@@H](COc3ccc(NC(=O)c4ccccc4F)cc3C(=O)N2C)O1: f
- CC(C)NC(=O)Nc1ccc2c(c1)C(=O)N([C@@H](C)CO)C[C@H](C)[C@@H](CN(C)Cc1ccc(C(=O)O)cc1)O2: f
- COc1ccc([Si](C)(C)[C@H]2[C@H](CCO)O[C@@]3(C(=O)N(Cc4ccccc4)c4ccc(N(C=O)c5ccccc5)cc43)[C@@H]2C)cc1: t
- CO[C@H]1CN(C)C(=O)c2cc(NC(=O)CC(F)(F)F)ccc2OC[C@@H](C)N(S(=O)(=O)c2cn(C)cn2)C[C@@H]1C: f
- CS(C)(=O)=O: t
- CCOC(=O)c1snc2c(=O)nc[nH]c12: f
- C[C@H]1CCCCO[C@@H](CN(C)Cc2ccncc2)[C@@H](C)CN([C@@H](C)CO)C(=O)c2cc(NS(C)(=O)=O)ccc2O1: f
- C[C@H](CO)N1C[C@H](C)[C@@H](CN(C)Cc2ccc(Cl)c(Cl)c2)Oc2ccc(NC(=O)CCCCCC(=O)Nc3ccccc3N)cc2CC1=O: f
- C[C@@H]1CN([C@H](C)CO)C(=O)c2cc(NC(=O)Nc3ccc(C(F)(F)F)cc3)ccc2O[C@@H](C)CCCCO[C@@H]1CN(C)S(=O)(=O)c1cn(C)cn1: f

----------
# System: HepG2
# procedure-text: cytotoxicity call (relative viability < 0.9)
# test-conditions: 10 µM
Screen size: about 39,000 compounds; about 3,300 (8.5%) were called active. This is one part of a sample in which actives are shown more often than they occur.
Labels: active, inactive

- C[C@@H]1CN([C@@H](C)CO)C(=O)c2cc(NC(=O)Nc3ccc4c(c3)OCO4)ccc2O[C@H]1CN(C)Cc1ccc(Cl)c(Cl)c1: active
- C[C@H]1CN([C@@H](C)CO)C(=O)c2cc(NC(=O)Nc3ccc4c(c3)OCO4)ccc2O[C@H]1CN(C)Cc1ccc(Cl)c(Cl)c1: inactive
- CCCNC(=O)Nc1ccc2c(c1)OC[C@H](C)N(Cc1ccc(-c3ccccn3)cc1)C[C@@H](C)[C@@H](OC)CN(C)C2=O: inactive
- CN1CCN(C(=O)C[C@@H]2CC[C@H]3[C@@H](COC[C@@H](O)CN3C(=O)C3CC3)O2)CC1: inactive
